src = ChEMBL document CHEMBL1140434

# target of assay: Adenosine receptor A1 (Homo sapiens) (UniProt P30542)
# Sequence (whole entry): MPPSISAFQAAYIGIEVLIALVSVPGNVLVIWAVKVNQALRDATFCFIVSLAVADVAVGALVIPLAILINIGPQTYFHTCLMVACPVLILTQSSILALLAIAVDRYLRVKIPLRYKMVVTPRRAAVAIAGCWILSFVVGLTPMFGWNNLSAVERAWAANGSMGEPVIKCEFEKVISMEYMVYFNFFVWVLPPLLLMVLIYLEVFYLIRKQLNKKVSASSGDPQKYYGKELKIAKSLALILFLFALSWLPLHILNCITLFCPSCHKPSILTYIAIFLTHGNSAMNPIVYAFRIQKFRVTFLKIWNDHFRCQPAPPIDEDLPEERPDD
# measurement notes: Percentage inhibition of [3H]CHA binding to cloned human adenosine A1 receptor expressed in CHO cells at 10 uM
# Format: cell-based
experimental endpoint: inhibition (%)
One number for each entry, in %.

O=C(OCc1ccccc1)c1nc2c(O)nc3ccccc3n2n1; 33
CCOC(=O)c1nc2c(O)nc3ccccc3n2n1; 5
CCOC(=O)c1nc2c(=O)n(C(=O)OCC)c3ccccc3n2n1; 12
COc1ccc(-c2nc3c(O)nc4ccccc4n3n2)cc1; 32

Please turn your attention to the following entry.
input: Quick one: inhibition for `CCOC(=O)c1nc2c(O)nc3ccc(N)cc3n2n1` ?
output: 33

###

# Test system: Adenosine receptor A2a (Bos taurus)
# measurement notes: Percentage inhibition of [3H]CGS 21680 binding to adenosine A2A receptor in bovine striatal membranes at 20 uM
# test conditions: Striatum, Membrane
experimental endpoint: inhibition (%)
Give bare numbers, in %.

Use the examples below as a reference point.
CC(C)OC(=O)c1nc2c(O)nc3ccccc3n2n1; 2.9
CCOC(=O)c1nc2c(O)nc3cc(N)ccc3n2n1; 9
CCOC(=O)c1nc2c(O)nc3cc(Cl)ccc3n2n1; 15.2

Can you give me inhibition for all of these, one by one?
1. CCOC(=O)c1nc2c(=O)n(C)c3ccc(Cl)cc3n2n1
2. O=C(OCc1ccccc1)c1nc2c(O)nc3ccccc3n2n1
3. Oc1nc2ccccc2n2nc(-c3ccccc3)nc12

output:
[0, 47, 7]

###

# target of assay: Adenosine receptor A2a (Homo sapiens) (UniProt P29274)
# Sequence (P29274 whole entry): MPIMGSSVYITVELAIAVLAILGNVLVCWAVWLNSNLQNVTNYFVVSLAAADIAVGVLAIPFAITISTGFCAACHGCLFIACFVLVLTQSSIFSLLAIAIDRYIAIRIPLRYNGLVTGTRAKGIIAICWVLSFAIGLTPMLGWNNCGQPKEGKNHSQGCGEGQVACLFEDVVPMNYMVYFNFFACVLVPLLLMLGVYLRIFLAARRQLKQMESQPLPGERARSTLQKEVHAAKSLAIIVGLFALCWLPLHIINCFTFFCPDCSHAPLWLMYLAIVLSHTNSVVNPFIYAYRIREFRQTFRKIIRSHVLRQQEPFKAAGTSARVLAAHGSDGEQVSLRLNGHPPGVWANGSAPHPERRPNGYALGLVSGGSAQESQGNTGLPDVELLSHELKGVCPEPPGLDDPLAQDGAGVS
# measurement notes: Percentage inhibition of [3H]NECA binding to cloned human adenosine A2A receptor expressed in CHO cells at 10 uM
# Assay type: cell-based
Mark f for inhibition values under 20%, and t for everything at or above.

Example cases with answers are listed next.
CCOC(=O)c1nc2c(O)nc3ccccc3n2n1; f
Oc1nc2ccc(Cl)cc2n2nc(-c3ccco3)nc12; t
O=C(OCc1ccccc1)c1nc2c(O)nc3ccccc3n2n1; t
CCOC(=O)c1nc2c(O)nc3ccc(N)cc3n2n1; t
CCOC(=O)c1nc2c(=O)n(C(=O)OCC)c3ccccc3n2n1; f

input: For this molecule, is measured inhibition 20% or higher? `COc1ccc(-c2nc3c(N)nc4ccc(Cl)cc4n3n2)cc1`
output: t

input: For this molecule, is measured inhibition 20% or higher? `COc1ccc(-c2nc3c(O)nc4ccccc4n3n2)cc1`
output: t

###

Kindly supply the reported inhibition values for the records listed here.
# Test system: Adenosine receptor A2a (Bos taurus)
# measurement notes: Percentage inhibition of [3H]CGS 21680 binding to adenosine A2A receptor in bovine striatal membranes at 34 uM
# test conditions: Striatum, Membrane
One number for each entry, in %.

Can you give me inhibition for all of these, one by one?
1. COc1ccc(-c2nc3c(O)nc4ccc(C)cc4n3n2)cc1
2. O=C(O)c1nc2c(O)nc3ccccc3n2n1
3. CCOC(=O)c1nc2c(=O)n(O)c3ccccc3n2n1
4. Oc1nc2ccccc2n2nc(-c3cccs3)nc12
5. CCOC(=O)c1nc2c(O)nc3ccc(Cl)cc3n2n1
6. Oc1nc2ccc(Cl)cc2n2nc(-c3ccoc3)nc12
7. CCOC(=O)c1nc2c(=O)n(CC)c3ccccc3n2n1

output:
1. 5
2. 0
3. 2
4. 54
5. 7
6. 25.3
7. 20.5
